# targetOrTestSystem: KDM5B (Homo sapiens, UniProt Q9UGL1)
# Construct: Full length of KDM5B and KDM4C protein were purchased from Active Motif; purchased Active Motif 31832
# Sequence (Q9UGL1 whole entry): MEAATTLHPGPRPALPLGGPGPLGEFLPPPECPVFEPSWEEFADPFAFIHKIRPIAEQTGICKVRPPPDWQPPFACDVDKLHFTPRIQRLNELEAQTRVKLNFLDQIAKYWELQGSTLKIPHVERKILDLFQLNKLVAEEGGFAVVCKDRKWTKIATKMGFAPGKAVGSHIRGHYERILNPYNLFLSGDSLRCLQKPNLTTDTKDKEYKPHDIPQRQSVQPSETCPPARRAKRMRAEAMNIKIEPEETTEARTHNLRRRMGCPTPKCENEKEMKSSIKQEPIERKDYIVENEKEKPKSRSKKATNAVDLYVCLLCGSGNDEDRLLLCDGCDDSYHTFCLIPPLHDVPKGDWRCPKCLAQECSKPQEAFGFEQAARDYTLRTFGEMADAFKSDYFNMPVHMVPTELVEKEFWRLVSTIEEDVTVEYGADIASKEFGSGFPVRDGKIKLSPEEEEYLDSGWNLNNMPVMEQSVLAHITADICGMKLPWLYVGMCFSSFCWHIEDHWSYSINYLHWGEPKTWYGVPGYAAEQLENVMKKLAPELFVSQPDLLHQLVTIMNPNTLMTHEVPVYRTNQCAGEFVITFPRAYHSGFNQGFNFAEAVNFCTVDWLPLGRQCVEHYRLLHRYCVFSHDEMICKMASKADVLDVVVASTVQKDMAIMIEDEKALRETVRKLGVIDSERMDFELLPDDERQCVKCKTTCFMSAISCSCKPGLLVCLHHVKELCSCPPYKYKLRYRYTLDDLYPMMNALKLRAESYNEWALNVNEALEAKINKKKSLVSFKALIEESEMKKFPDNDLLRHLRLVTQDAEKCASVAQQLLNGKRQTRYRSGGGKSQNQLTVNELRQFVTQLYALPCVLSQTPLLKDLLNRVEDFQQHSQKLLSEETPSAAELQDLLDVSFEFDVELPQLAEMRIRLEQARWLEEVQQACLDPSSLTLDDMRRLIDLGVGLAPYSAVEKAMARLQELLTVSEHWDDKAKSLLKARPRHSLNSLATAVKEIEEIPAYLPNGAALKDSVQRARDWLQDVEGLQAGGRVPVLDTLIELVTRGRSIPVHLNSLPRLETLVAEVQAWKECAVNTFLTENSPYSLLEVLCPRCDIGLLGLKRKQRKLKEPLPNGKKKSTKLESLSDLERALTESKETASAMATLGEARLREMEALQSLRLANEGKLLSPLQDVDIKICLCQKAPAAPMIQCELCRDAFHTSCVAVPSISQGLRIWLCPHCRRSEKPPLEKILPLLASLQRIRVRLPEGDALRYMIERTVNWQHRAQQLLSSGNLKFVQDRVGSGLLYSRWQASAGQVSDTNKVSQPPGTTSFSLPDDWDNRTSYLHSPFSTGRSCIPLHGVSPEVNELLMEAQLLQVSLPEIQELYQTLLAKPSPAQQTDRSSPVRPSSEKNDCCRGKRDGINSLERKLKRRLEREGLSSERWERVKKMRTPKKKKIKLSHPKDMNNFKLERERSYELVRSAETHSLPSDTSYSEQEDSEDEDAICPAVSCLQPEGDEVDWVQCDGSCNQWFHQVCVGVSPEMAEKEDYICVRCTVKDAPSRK
# assayExplanation: biochemical
Can you tell me pIC50 for the items I'm about to list?
Scale explanation: pIC50 corresponds to minus log10 of a concentration expressed in moles per litre.

Value sought: pIC50, system KDM5B (Homo sapiens, UniProt Q9UGL1), item CC(C)c1c(O)nc(-n2ccnc2)nc1-c1cnn(CC(=O)NCCN(CC(F)(F)F)C2CC2)c1 . Result: 7.68

Value sought: pIC50, system KDM5B (Homo sapiens, UniProt Q9UGL1), item CC(C)c1c(O)nc(-n2ccnc2)nc1-c1ccc(S(C)(=O)=O)cc1 . Result: 7.66

Value sought: pIC50, system KDM5B (Homo sapiens, UniProt Q9UGL1), item CC(C)c1c(O)nc(-n2ccnc2)nc1OCCC1CCN(CCCC(F)(F)F)CC1 . Result: 7.92

Value sought: pIC50, system KDM5B (Homo sapiens, UniProt Q9UGL1), item CC(C)c1c(O)nc(-n2ccnc2)nc1OCC(=O)N1CCN(C)CC1 . Result: 7.59

Value sought: pIC50, system KDM5B (Homo sapiens, UniProt Q9UGL1), item CC(C)c1c(O)nc(-n2ccnc2)nc1OC1CCOC1 (stereo not drawn) . Result: 7.33

Value sought: pIC50, system KDM5B (Homo sapiens, UniProt Q9UGL1), item COCCn1cc(-c2nc(-n3ccnc3)nc(O)c2C(C)C)cn1 . Result: 7.85

Value sought: pIC50, system KDM5B (Homo sapiens, UniProt Q9UGL1), item CC(C)c1c(O)nc(-n2ccnc2)nc1OCCc1ccncc1 . Result: 7.57

Value sought: pIC50, system KDM5B (Homo sapiens, UniProt Q9UGL1), item CC(C)c1c(O)nc(-n2ccnc2)nc1OCCN1CCCCC1 . Result: 7.57

Value sought: pIC50, system KDM5B (Homo sapiens, UniProt Q9UGL1), item CC(C)c1c(O)nc(-n2ccnc2)nc1C#Cc1cccnc1 [Example 10a] . Result: 7.96
